Quick reference for t1/2 among some binders
MEASUREMENT_TARGET: T1, N-terminal ectodomain of human GLP1R expressed with a myc-myc hexahistidine tag (human, UniProt P43220 24-145, limits assumed)
T1 construct: extracellular domain; also called hGLP1R-MMH; hGLP1R.mmh
T1 sequence (P43220 24-145 limits assumed): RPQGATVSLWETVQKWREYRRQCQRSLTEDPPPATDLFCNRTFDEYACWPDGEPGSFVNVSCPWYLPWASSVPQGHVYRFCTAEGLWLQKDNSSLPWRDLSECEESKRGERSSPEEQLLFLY
ASSAY_OVERVIEW: SPR, captured via anti-hFc, 25 C

{"BINDER": "H2aM30341N (antibody, V domains shown, parent of H4H30341N (REGN9278 without Q-tag); also called parent of REGN9278) VH: QVQLQQWGAGLLKPSETLSLTCAVYGGSFSGYYWSWIRQPPGKGLEWIGEINHAGSTNYNPSLKSRITISVDTSKNQFSLKLSSVTAADTAVYYCARGWYYGSGSYHRNWFDPWGQGTLVTVSS VL: EIVLTQSPGTLSLSPGERATLSCRASQSVYYSYLAWYQQKPGQAPRLLIYGASNRATGIPDRFSGSGSGTDFTLTISRLEPEDFAVYYCQQYGNSPWTFGQGTKVEIK", "t1/2 [h]": 2.49}
{"BINDER": "REGN8051 (antibody, V domains shown, parental antibody without Q-tag; also called parent of REGN8070) VH: QVQLVESGGGVGQPGRSLRLSCAASGFTFSRNAMHWVRQAPGKGLEWVAVISYDGSNKHYADSVKGRFTISRDNSKNTLYLEMNSLRVEDTAVYYCAKGGIPFDYWGQGTLVTVSS VL: DIVMTQSPLSSPVTLGQPASISCRSSQSLVHFDGNTYLSWLHQRPGQPPRLLIYKISNRFSGVPDRFSGSGAGTDFTLKISRVEPEDVGVYYCMHATQFPYTFGQGTKLEIK", "t1/2 [h]": 0.912}
{"BINDER": "REGN8052 (antibody, V domains shown, parental antibody without Q-tag; also called parent of REGN8072) VH: QVQLVESGGGVVQPARSLRLSCAASGFAFSRSAMHWVRQAPGKGLEWVAVISYDGSNKYYTDSVKGRFTISRDNSKNTLYLQMNTLRAEDTALYYCAKMYTTMDSFDYWGQGTLVTVSS VL: DIQLTQSPSFLSASVGDRVTITCWASQGISSYLAWYQQKPGKAPKLLIYAASTLQSGVPSRFSGSGSGTEFTLTISSLQPEDFALYYCQQLNSYPRTFGQGTKVEIK", "t1/2 [h]": 0.16}
{"BINDER": "H1M30345N (antibody, V domains shown) VH: EVQLVESGGGLVKPGGSLRLSCAASGFIFSRYSMNWVRQAPGKGLEWVSSMSSNSKNTYYADSVKGRFTISRDNAKNSLFLQMNTLRAEDTAVYYCARDGYTLRAFDIWGQGTMVTVSS VL: EIVLTQSPGTLSLSPGERDTLSCRASQSIAGRYVAWYQQKPGQAPRLLIYGASSRATGIPDRFSGSGSGTDFTLTISRLEPEDFAVYYCQQYGSSPWTFGQGTKVEIK", "t1/2 [h]": 1.71}
